Biological target: T1, human LAG-3 (His tag) (human, UniProt P18627 23-450, limits assumed)
T1 construct: also called LAG-3-His antigen; not shown: His tag
T1 sequence (looked up): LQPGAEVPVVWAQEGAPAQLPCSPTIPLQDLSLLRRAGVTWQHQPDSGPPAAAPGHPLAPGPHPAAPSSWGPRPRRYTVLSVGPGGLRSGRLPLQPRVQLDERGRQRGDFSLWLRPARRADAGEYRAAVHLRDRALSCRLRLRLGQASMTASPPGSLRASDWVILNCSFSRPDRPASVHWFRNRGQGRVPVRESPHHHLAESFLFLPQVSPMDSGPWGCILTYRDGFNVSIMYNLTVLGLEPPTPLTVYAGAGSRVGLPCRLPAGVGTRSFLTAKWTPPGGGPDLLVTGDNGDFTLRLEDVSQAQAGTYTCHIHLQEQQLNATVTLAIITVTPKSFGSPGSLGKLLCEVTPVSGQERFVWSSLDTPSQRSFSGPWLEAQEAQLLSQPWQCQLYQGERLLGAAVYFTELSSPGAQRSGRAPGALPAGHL
Experiment: BLI (ForteBio Octet), LAG-3 His on Ni-NTA sensor
observable: pKd
Bear in mind: pKd is minus log10 of a mol/L concentration; give just that figure.

Look over these answered cases.
INSERT INTO results (binder, value) VALUES
  ('humanized antibody AB12T6 (antibody, human IgG4, kappa, V domains shown) VH: DVQLQESGPGLVKPSQSLSLTCTVSGYSITSFYSWHWIRQHPGKGLEWMGCIQYSGDTYYNPSLKSRVTISVDTSKNQFSLKLSSVTAADTAVYYCARSPYDSDPYYVMDYWGQGTLVTVSS VL: DIVMSQSPDSLAVSLGERATITCKSSQSLLYSGNQKNYLAWYQQKPGQPPKLLIYWASTRDSGVPDRFSGSGSGTDFTLTISSLQAEDVAVYYCQQYYAYPYTFGGGTKLETKR', 9.42),
  ('murine monoclonal antibody #27 (antibody, IgG4, V domains shown, Purified from hybridoma supernatant; also called murine antibody #27; monoclonal antibody produced by hybridoma cell line #27 (CCTCC NO.C2017183)) VH: DVHLQESGPDLVKPSQSLSLTCTVTGYSITSFYSWHWIRQFPGNKLEWMGCIQYSGDTDSNPSLKSRISITRDTSENQLFLHLNSVTTEDTATYYCARSPYDSDPYYVMDYWGQGTSVTVSS VL: DIVMSQSPSSLAVSVGEKITMTCKSSQSLLYSGNQKNYLAWYQQKPGQSPTLLIYWASTRDSGVPDRLTGSGSGTDFTLTISSVKAEDLAVYYCQQYYAYPYTFGGGTKLETK', 9.50);

Shifting focus to the binder that follows.
Supply pKd value. Item: humanized antibody AB12T5 (antibody, human IgG4, kappa, V domains shown) VH: QVQLQESGPGLVKPSQTLSLTCTVSGYSITSFYSWHWIRQHPGKGLEWIGCIQYSGDTDSNPSLKSRVTISVDTSKNQFSLKLSSVTAADTAVYYCARSPYDSDPYYVMDYWGQGTSVTVSS VL: DIVMTQSPDSLAVSLGERATITCKSSQSLLYSGNQKNYLAWYQQKPGQPPKLLIYWASTRDSGVPDRFSGSGSGTDFTLTISSLQAEDVAVYYCQQYYAYPYTFGGGTKLEIKR 9.44
